Tested on: MS2 coat protein
Protocol Summary: apparent KD of MS2 coat protein; designed switch direction (-1 OFF switch, 1 ON switch): -1; higher = weaker reporter binding
Conditions Used: input ligand: none
Use 40 nM as the dividing line for apparent KD of MS2 coat protein, with the line itself on the rule met side and lower values as rule not met.

Sequence Code	Assigned Category
ACGAUGACCGAAAAGUGUCAACUGACAUGAGGAUCACCCAUGUAGGAUAUGGCUACGAAAAGUAGUCAGAAGGACAUGUCAUCA [Omei Exc(NG) 3 Av6] (Eterna round: R96, puzzle: Exclusion NG 3)	rule not met
CCAUAGUGAGGAUAUGUAAACGUGUUGGCGAAAUCAGCACGGCAGAAGGCACAUGAGGAUCACCCAUGUCCUGA [Eternabot (L2) Solution 45] (Eterna round: R97, puzzle: Exclusion 4)	rule not met
ACAUGAGGAUCACCCAUGUCAGGCUGGUCCGCUCCGGCUGUUGAGGAUAUAGCACGGUGUCCGCGCUAGAAGGUGAGGGCCGGC [Aenatbe mod 31] (Eterna round: R96, puzzle: Exclusion NG 3)	rule not met
GGAUCUACUGAGGAUAUUACAUCACCCGACUGAUAAGAAGGCAGAACAUGAGGAUCACCCAUGUGGGUAGCCAC [Polaris5] (Eterna round: R97, puzzle: Exclusion 6)	rule not met
AGCUUUUUGUUCGUCUUAUACAUGAGGAUCACCCAUGUAUUGGACCGCAUCGAUAGAUGUAGACCGAGAAGCAUGGG [Omdei Mir OFFv1 C6] (Eterna round: R97, puzzle: Sensor, turn-off variant 1)	rule met
